- Tested on: Phaedon cochleariae
- method_summary: Phaedon cochleariae spray test, Chinese cabbage leaf discs
- Assay type: in vivo
- assay_setup: foliar, 168 h, application rate 100 g/ha, after 7 days, larvae, read-out: efficacy
metric: pest or weed control at 100 g/ha (%)

structure_smiles: CCS(=O)(=O)c1ccc(-n2cncn2)nc1-c1nc2cc(C(F)(F)F)nc(C)c2n1C
endpoint_value: 83
--
structure_smiles: CCS(=O)(=O)c1ccc(-n2ncn(-c3ccc(Cl)cc3)c2=O)nc1-c1nc2cc(C(F)(F)F)nc(C)c2n1C
endpoint_value: 100
--
structure_smiles: CCS(=O)(=O)c1ccc(-n2cncn2)nc1-c1nc2cc(C(F)(F)F)nc(C#N)c2n1C
endpoint_value: 83
--
structure_smiles: CCS(=O)(=O)c1ccc(-n2cc(C#N)cn2)nc1-c1nc2cc(C(F)(F)F)nc(C)c2n1C
endpoint_value: 100
--
structure_smiles: CCS(=O)(=O)c1ccc(-n2ncn(-c3ccc(Cl)cc3)c2=O)nc1-c1nc2cc(C(F)(F)F)nc(C#N)c2n1C
endpoint_value: 100
--
structure_smiles: CCS(=O)(=O)c1ccc(-n2cc(Cl)cn2)nc1-c1nc2cc(C(F)(F)F)nc(C)c2n1C
endpoint_value: 100
--
structure_smiles: CCS(=O)(=O)c1ccc(N)nc1-c1nc2cc(C(F)(F)F)nc(C#N)c2n1C
endpoint_value: 100
--
structure_smiles: CCc1nc(C(F)(F)F)cc2nc(-c3nc(-n4ncn(-c5ccc(Cl)cc5)c4=O)ccc3S(=O)(=O)CC)n(C)c12
endpoint_value: 100
--
structure_smiles: CCS(=O)(=O)c1ccc(-n2ccnn2)nc1-c1nc2cc(C(F)(F)F)nc(C)c2n1C
endpoint_value: 83
